As shown below, each of these molecules has a reported kon value.
Molecular target: T1, MurineB7-H4 (Mus musculus, UniProt Q7TSP5)
T1 construct: Mouse B7H4 ECD; FLAG (C); 10His (C); made in house
T1 sequence (Q7TSP5 25-257 limits assumed): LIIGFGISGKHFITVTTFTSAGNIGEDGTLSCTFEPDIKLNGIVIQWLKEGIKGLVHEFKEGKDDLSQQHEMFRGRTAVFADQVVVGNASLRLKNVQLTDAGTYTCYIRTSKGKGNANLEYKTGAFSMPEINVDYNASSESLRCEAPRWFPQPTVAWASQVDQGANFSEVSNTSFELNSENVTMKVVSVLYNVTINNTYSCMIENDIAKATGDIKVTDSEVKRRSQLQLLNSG
Test: ForteBio Octet affinity
Type: binding, murine
Conditions: hIgG1 (n = 1)
Reply with just the number (in M⁻¹ s⁻¹).

Given ZY0EPQ-E02: anti-B7-H4 antibody clone, VH SEQ ID NO: 31, VL SEQ ID NO: 32 (antibody, V domains shown) VH: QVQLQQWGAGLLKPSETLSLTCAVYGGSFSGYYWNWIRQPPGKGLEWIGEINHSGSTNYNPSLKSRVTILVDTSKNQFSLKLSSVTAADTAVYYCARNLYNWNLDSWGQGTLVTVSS VL: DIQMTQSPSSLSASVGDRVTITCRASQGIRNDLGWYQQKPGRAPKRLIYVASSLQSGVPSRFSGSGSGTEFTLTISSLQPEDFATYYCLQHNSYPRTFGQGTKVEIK , state its recorded kon. 100000

Continue with the next molecule.
# get_value(readout='kon', item= ZY0EP0-C07: anti-B7-H4 antibody clone, VH SEQ ID NO: 39, VL SEQ ID NO: 40 (antibody, V domains shown) VH: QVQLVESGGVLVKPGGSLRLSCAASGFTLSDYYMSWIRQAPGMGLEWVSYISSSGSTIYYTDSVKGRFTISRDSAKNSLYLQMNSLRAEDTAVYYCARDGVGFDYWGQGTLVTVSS VL: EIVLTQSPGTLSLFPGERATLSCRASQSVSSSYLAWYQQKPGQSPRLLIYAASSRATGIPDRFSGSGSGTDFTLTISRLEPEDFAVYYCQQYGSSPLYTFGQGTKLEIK ) 60200
